Values from patent US20030068675

- measured_target: T1, ZFP SBS#989 (synthetic)
- T1 chain: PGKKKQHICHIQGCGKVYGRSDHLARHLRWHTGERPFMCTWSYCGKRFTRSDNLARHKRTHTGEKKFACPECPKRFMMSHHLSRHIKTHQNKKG
- protocol_text: EMSA
- recorded_conditions: tags: MBP fusion
experimental_endpoint: pKd
pKd is defined as minus the log10 of a concentration measured in mol/L.

Sure, the documented pKd for GGTGAGGGG (dsDNA) DNA 1: GGTGAGGGG DNA 2: CCCCTCACC is 8.72
